target: IRI1/LHT1 (Arabidopsis thaliana); experiment: inhibition of […]-L-Ala uptake in yeast
Sequence (Q9FKS8 whole entry): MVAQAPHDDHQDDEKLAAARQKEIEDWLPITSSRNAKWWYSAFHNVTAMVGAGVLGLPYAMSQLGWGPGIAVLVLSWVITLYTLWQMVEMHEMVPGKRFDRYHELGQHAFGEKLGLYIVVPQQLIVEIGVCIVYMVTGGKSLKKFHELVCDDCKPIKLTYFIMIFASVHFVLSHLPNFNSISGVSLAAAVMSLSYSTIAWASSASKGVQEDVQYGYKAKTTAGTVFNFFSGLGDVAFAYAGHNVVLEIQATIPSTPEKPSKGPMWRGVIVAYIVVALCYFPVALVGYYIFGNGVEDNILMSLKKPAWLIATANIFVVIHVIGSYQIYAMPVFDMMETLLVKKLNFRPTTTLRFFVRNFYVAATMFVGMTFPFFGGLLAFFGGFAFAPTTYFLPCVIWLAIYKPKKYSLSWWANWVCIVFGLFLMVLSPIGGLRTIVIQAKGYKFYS
testReadout: Ki
Express your answer as a number followed by its unit.

| molecule | Ki |
| --- | --- |
| N[C@@H](CO)CC(=O)O [RBH, R-β-homoserine] | 39.2 µM |

What value of Ki has been recorded for this entry: CC(N)CC(=O)O (racemic) [BABA, β-amino butyric acid] 24.7 µM
